Cited source: ChEMBL document CHEMBL1134853

Molecular target: NADH dehydrogenase [ubiquinone] 1 alpha subcomplex subunit 11 (Bos taurus, UniProt Q8HXG6)
Sequence (Q8HXG6 whole entry): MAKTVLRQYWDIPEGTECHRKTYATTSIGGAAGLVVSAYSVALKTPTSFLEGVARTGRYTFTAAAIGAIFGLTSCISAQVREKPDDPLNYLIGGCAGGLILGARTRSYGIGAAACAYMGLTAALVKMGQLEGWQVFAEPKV
Test: Inhibitory activity against bovine heart mitochondrial NADH ubiquinone oxidoreductase (complex I)
I'd appreciate it if you could supply IC50 values for the items below.
Express your answer in nM, writing the number without its unit.

Measured IC50 of `CCCCCCCCCC[C@@H](O)[C@H]1CC[C@H]([C@H]2CC[C@H]([C@H](O)CCCCCCCCCCCCC3=C[C@H](C)OC3=O)O2)O1` : 0.9

Measured IC50 of `C[C@H]1C=C(CCCCCCCCCCCC[C@@H](O)[C@H]2CC[C@H]([C@H]3CC[C@H]([C@@H](C)O)O3)O2)C(=O)O1` : 3.1
